Each recorded value in this set is attributed to patent US11339122B2.

molecular target: hTRPV1 (Homo sapiens (Human), UniProt Q8NER1); assay: Ca2+ uptake assay, capsaicin antagonism (CHO-hTRPV1 cells); format: cell-based; settings: compound at 30 μM, capsaicin 30 nM
Sequence (Q8NER1 whole entry): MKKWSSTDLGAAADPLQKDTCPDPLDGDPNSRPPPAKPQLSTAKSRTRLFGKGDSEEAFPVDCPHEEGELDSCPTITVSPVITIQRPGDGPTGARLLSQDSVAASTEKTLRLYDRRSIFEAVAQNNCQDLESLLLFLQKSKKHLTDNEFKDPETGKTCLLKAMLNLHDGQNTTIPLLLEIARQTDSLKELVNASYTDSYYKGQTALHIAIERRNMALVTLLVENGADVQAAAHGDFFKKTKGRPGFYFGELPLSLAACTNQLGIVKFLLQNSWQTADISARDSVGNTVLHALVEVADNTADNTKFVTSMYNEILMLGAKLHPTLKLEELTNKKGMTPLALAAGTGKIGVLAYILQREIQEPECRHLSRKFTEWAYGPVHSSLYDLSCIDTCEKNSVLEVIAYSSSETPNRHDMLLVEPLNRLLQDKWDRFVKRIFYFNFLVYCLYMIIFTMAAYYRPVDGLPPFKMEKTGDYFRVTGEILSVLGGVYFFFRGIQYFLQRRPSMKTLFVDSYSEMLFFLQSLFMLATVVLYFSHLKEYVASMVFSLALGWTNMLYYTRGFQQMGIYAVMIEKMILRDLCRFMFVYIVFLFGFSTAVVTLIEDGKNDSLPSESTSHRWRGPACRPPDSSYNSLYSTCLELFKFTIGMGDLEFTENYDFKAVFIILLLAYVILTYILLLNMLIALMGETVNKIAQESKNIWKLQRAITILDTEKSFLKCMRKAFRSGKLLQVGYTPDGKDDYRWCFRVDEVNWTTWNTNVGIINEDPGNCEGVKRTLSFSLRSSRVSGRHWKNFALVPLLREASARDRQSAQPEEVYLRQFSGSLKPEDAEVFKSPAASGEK
property_measured: inhibition at 30 µM (%)

Previously resolved entries follow.
Cc1c(Cl)cccc1NC(=O)Nc1cccc2c(O)cccc12 [Compound 15] :: 99.6
COc1ccc(Cl)cc1NC(=O)Nc1ccc(CCO)cc1 [Compound 7] :: 33

I = NC(=O)c1ccccc1NC(=O)Nc1ccc(F)cc1 [Compound 3]
II = Cc1ccc(Cl)cc1NC(=O)Nc1cccc2c(O)cccc12 [Compound 13]
III = CCN(CC)c1ccc(CNS(=O)(=O)c2ccc(NC(C)=O)cc2)cc1 [XIE1-203Y]
IN: Rank descending by inhibition at 30 µM. Record the ranking as a list of labels in the requested order.
OUT: II, I, III
(II: 72%, I: 32%, III: 12.7%)

A = O=C(Nc1cc(C(F)(F)F)ccc1Cl)c1ccccc1F [Compound 18]
B = Cc1c(Cl)cccc1NC(=O)Nc1cccc(O)c1 [Compound 16]
IN: When the recorded inhibition at 30 µM values are compared, which is smaller: that of A or that of B ? To answer, give the label that identifies your chosen option.
OUT: A
